# System: MDA-MB-231
# TEST: Cytotoxicity against human MDA-MB-231 cells
# Format: functional, cell-based
MEASURED PROPERTY: IC50

QUERY: Output IC50 of CO[C@@H](/C=C/CC/C=C/C(=O)O)[C@@H](O)[C@H](C)C(O)/C(C)=C/[C@H](C)C(=O)CCCC1CC(=O)NC(=O)C1 (stereo partly drawn)
RESULT: > 100 µM

QUERY: Output IC50 of C/C1=C/[C@@H](C)CC/C=C/CC/C=C/C(=O)O[C@@H]1[C@H](C)C(=O)C[C@H](O)CC1CC(=O)NC(=O)C1
RESULT: 1 µM

QUERY: Output IC50 of CO[C@@H](/C=C/CC/C=C/C(=O)O)[C@@H](O)[C@H](C)/C=C(\C)[C@@H](O)[C@H](C)C(=O)CCCC1CC(=O)NC(=O)C1
RESULT: > 100 µM

QUERY: Output IC50 of CO[C@H]1/C=C/CC/C=C/C(=O)O[C@H]([C@H](C)C(=O)CCCC2CC(=O)NC(=O)C2)/C(C)=C\[C@@H](C)[C@@H]1O
RESULT: 4.6 µM

QUERY: Output IC50 of CO[C@@H](/C=C/CC/C=C/C(=O)O)[C@@H](O)[C@H](C)[C@@H](O)/C(C)=C/[C@H](C)C(=O)C[C@H](O)CC1CC(=O)NC(=O)C1
RESULT: > 100 µM

QUERY: Output IC50 of C/C(=C\[C@H](C)C(=O)CCCC1CC(=O)NC(=O)C1)[C@H](O)[C@@H](C)[C@H](O)C/C=C/CC/C=C/C(=O)O
RESULT: > 100 µM

QUERY: Output IC50 of CO[C@@H](/C=C/CC/C=C/C(=O)O)[C@@H](O)[C@H](C)/C=C(\C)[C@H](O)[C@H](C)C(=O)C[C@H](O)CC1CC(=O)NC(=O)C1
RESULT: > 100 µM

QUERY: Output IC50 of C/C(=C\[C@H](C)C(=O)CCCC1CC(=O)NC(=O)C1)[C@H](O)[C@@H](C)[C@H](O)[C@@H](O)/C=C/CC/C=C/C(=O)O
RESULT: > 100 µM

QUERY: Output IC50 of CO[C@H]1/C=C/CC/C=C/C(=O)O[C@H]([C@H](C)C(=O)C[C@H](O)CC2CC(=O)NC(=O)C2)/C(C)=C\[C@@H](C)[C@@H]1O
RESULT: 5.2 µM

QUERY: Output IC50 of CO[C@@H](/C=C/CC/C=C/C(=O)O)[C@@H](O)[C@H](C)/C=C(\C)[C@H](O)[C@H](C)C(=O)CCCC1CC(=O)NC(=O)C1
RESULT: > 100 µM

QUERY: Output IC50 of C/C1=C/[C@@H](C)[C@H](O)C/C=C/CC/C=C/C(=O)O[C@@H]1[C@H](C)C(=O)C[C@H](O)CC1CC(=O)NC(=O)C1
RESULT: > 100 µM

QUERY: Output IC50 of C/C1=C/[C@@H](C)[C@H](O)[C@@H](O)/C=C/CC/C=C/C(=O)O[C@@H]1[C@H](C)C(=O)/C=C/CC1CC(=O)NC(=O)C1
RESULT: 29 µM

QUERY: Output IC50 of CO[C@H]1/C=C/CC/C=C/C(=O)O[C@H]([C@H](C)C(=O)/C=C/CC2CC(=O)NC(=O)C2)/C(C)=C\[C@@H](C)[C@@H]1O
RESULT: > 100 µM

QUERY: Output IC50 of C/C1=C/[C@@H](C)[C@H](O)[C@@H](O)/C=C/CC/C=C/C(=O)O[C@@H]1[C@H](C)C(=O)CCCC1CC(=O)NC(=O)C1
RESULT: > 100 µM

QUERY: Output IC50 of C/C(=C\[C@@H](C)CC/C=C/CC/C=C/C(=O)O)[C@@H](O)[C@H](C)C(=O)C[C@H](O)CC1CC(=O)NC(=O)C1
RESULT: > 100 µM

QUERY: Output IC50 of C/C(=C\[C@@H](C)CC/C=C/CC/C=C/C(=O)O)[C@H](O)[C@H](C)C(=O)C[C@H](O)CC1CC(=O)NC(=O)C1
RESULT: > 100 µM

QUERY: Output IC50 of C/C(=C\[C@@H](C)[C@H](O)C/C=C/CC/C=C/C(=O)O)[C@H](O)[C@H](C)C(=O)CCCC1CC(=O)NC(=O)C1
RESULT: > 100 µM

QUERY: Output IC50 of C/C1=C/[C@@H](C)[C@H](O)C/C=C/CC/C=C/C(=O)O[C@@H]1[C@H](C)C(=O)CCCC1CC(=O)NC(=O)C1
RESULT: > 100 µM

QUERY: Output IC50 of C/C1=C/[C@@H](C)C[C@@H](O)/C=C/CC/C=C/C(=O)O[C@@H]1[C@H](C)C(=O)C[C@H](O)CC1CC(=O)NC(=O)C1
RESULT: 13 µM

QUERY: Output IC50 of C/C(=C\[C@@H](C)[C@H](O)C/C=C/CC/C=C/C(=O)O)[C@@H](O)[C@H](C)C(=O)CCCC1CC(=O)NC(=O)C1
RESULT: > 100 µM

QUERY: Output IC50 of C/C(=C\[C@@H](C)[C@H](O)[C@@H](O)/C=C/CC/C=C/C(=O)O)[C@@H](O)[C@H](C)C(=O)CCCC1CC(=O)NC(=O)C1
RESULT: > 100 µM

QUERY: Output IC50 of C/C(=C\[C@@H](C)[C@H](O)[C@@H](O)/C=C/CC/C=C/C(=O)O)[C@H](O)[C@H](C)C(=O)CCCC1CC(=O)NC(=O)C1
RESULT: > 100 µM

QUERY: Output IC50 of C/C1=C/[C@@H](C)[C@H](O)C/C=C/CC/C=C/C(=O)O[C@@H]1[C@H](C)C(=O)/C=C/CC1CC(=O)NC(=O)C1
RESULT: > 100 µM
